# assay.notes: modulators of S6 phosphorylation in cells, primary screen, cell-based, A549, cytoblot, luminescence, serum-stimulated (AID 1158);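 further: serum-stimulated A549 lung adenocarcinoma cells; signal is phosphorylated S6 detected by cytoblot immunostaining with HRP secondary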
# details: A549 phospho-S6 cytoblot, 5 h, higher = more signal
property: z-score
In your answer, state the number alone without any accompanying words.

Task: z-score lookup needed for CN1C(=O)C2C=CC(C(O)c3ccccn3)N(Nc3ccccc3)C2C1=O (stereo not drawn) , thanks.
Output: -0.669

----------
# assay.notes: A549 cell viability effects, profiling panel, calcein-AM fluorescence, 48 h, basal (AID 1162); further: test concentration not given here
# details: higher = more signal
Record TRUE whenever z-score is at -0.1 or higher; record FALSE when lower.

COc1ccc(CCNC(=O)[C@@]2(c3ccc([N+](=O)[O-])cc3)CC(=O)N(CC34CC5CC(CC(C5)C3)C4)[C@@H]2c2ccc(CO)cc2)cc1 ... FALSE
C[N+](C)(C)CCCCCCNC(=O)[C@H]1C[C@H]2C(=O)N3CCC[C@H]3C(=O)N2[C@H]1c1ccc(O)cc1 ... FALSE
CCOC(=O)C1=CCC(c2ccc([N+](=O)[O-])cc2)N(S(=O)(=O)c2ccc(C)cc2)C1 (configuration not stated) ... FALSE
CCOC(=O)C[C@H]1[C@H](OC(=O)Cc2ccc3c(c2)OCO3)[C@@H](NC(=O)C2CCCCC2)c2cc(OCCCO)ccc2N1C(=O)Cc1ccc(OC)cc1 ... TRUE
Cc1ccccc1C(O)C1C=CC2C(=O)N(C)C(=O)C2N1N1CCCCC1 (configuration not stated) ... FALSE

From here, focus on the item given below.
Task: Hello, I need to know if `[N-]=[N+]=NCc1ccccc1C[C@]1(C(=O)O)N=C(c2ccc(OCCCO)cc2)O[C@H]1c1ccccc1` has measured z-score not below -0.1. Thanks!
Output: FALSE
